experiment: Octanol-water partition coefficient, logP of compound; format: physicochemical
API: label(entry) gives met if the entry's logP is strictly smaller than 4; on equality or larger values it gives not met.

- C=CCc1cc(/C=C2\CN(C3CC3)C/C(=C\c3ccc(N4CCN(C)CC4)cc3)C2=O)ccc1O: met
- C=CCc1cc(/C=C2\CN(C3CC3)C/C(=C\c3ccc(N4CCCC4)cc3)C2=O)ccc1O: not met
- C=CCc1cc(/C=C2\CN(C3CC3)C/C(=C\c3ccc(N(C)C)cc3)C2=O)ccc1O: met
- C=CCc1cc(/C=C2\CN(C3CC3)C/C(=C\c3ccc(N4CCOCC4)cc3)C2=O)ccc1O: met
